# Tested on: CCRIS mutagenicity, Ames/micronucleus/aberration tests
# ASSAY REMARKS: CCRIS mutagenicity studies
# TEST CONDITIONS: Test System: E. COLI; Strain/Indicator: WP2 UVRA; Metabolic Activation: HAMSTER, LIVER, S-9, AROCLOR 1254; Method: STANDARD PLATE
Activity calls are given as the source filed them. No rule for the calls is given here.
Respond only with the outcome that fits, drawn from 1.0 for active, 0.0 for inactive

[
  {
    "COMPOUND": "O=CC1CO1 (stereo unspecified)",
    "SYSTEM NAME": "CCRIS mutagenicity, Ames/micronucleus/aberration tests",
    "ASSIGNED CLASS": 1.0
  },
  {
    "COMPOUND": "Nc1ccc2ccccc2c1",
    "SYSTEM NAME": "CCRIS mutagenicity, Ames/micronucleus/aberration tests",
    "ASSIGNED CLASS": 0.0
  },
  {
    "COMPOUND": "O=Nc1ccc(NO)cc1",
    "SYSTEM NAME": "CCRIS mutagenicity, Ames/micronucleus/aberration tests",
    "ASSIGNED CLASS": 0.0
  },
  {
    "COMPOUND": "CC(=O)Nc1cccc2c1-c1ccccc1C2",
    "SYSTEM NAME": "CCRIS mutagenicity, Ames/micronucleus/aberration tests",
    "ASSIGNED CLASS": 0.0
  },
  {
    "COMPOUND": "CCOP(=S)(OCC)Oc1cc(C)nc(C(C)C)n1",
    "SYSTEM NAME": "CCRIS mutagenicity, Ames/micronucleus/aberration tests",
    "ASSIGNED CLASS": 0.0
  },
  {
    "COMPOUND": "CN(C)c1ccc(C(=O)c2ccc(N(C)C)cc2)cc1",
    "SYSTEM NAME": "CCRIS mutagenicity, Ames/micronucleus/aberration tests",
    "ASSIGNED CLASS": 0.0
  },
  {
    "COMPOUND": "CC(=O)OC/N=[N+](/C)[O-]",
    "SYSTEM NAME": "CCRIS mutagenicity, Ames/micronucleus/aberration tests",
    "ASSIGNED CLASS": 0.0
  },
  {
    "COMPOUND": "Nc1cccc2c(N)cccc12",
    "SYSTEM NAME": "CCRIS mutagenicity, Ames/micronucleus/aberration tests",
    "ASSIGNED CLASS": 0.0
  },
  {
    "COMPOUND": "Nc1ccc(Cl)c(N)c1",
    "SYSTEM NAME": "CCRIS mutagenicity, Ames/micronucleus/aberration tests",
    "ASSIGNED CLASS": 0.0
  },
  {
    "COMPOUND": "COc1ccc(N)cc1",
    "SYSTEM NAME": "CCRIS mutagenicity, Ames/micronucleus/aberration tests",
    "ASSIGNED CLASS": 0.0
  }
]

Any idea what this test logged for CCN(CC)N=O ?
0.0

# credit: PubChem BioAssay AID1259407
